Where do these numbers come from? They come from patent US6251899A.

# assay protocol: logP by HPLC (EEC Directive 79/831 Annex V. A8, gradient method, acetonitrile/0.1% aqueous phosphoric acid)
# Type: physicochemical
# Protocol: *The logP values were determined in accordance with EEC Directive 79/831 Annex V. A8 by HPLC (gradient method, acetonitrile/0.1% aqueous phosphoric
readout: chromatographic logP

(A) CON=C(C1=NOCCN1)c1ccccc1Oc1ncnc(Oc2ccccc2SC)c1F [Example 63]
(B) CON=C(C1=NOCCN1)c1ccccc1Oc1ncnc(Sc2ccc(Cl)c(C(F)(F)F)c2Cl)c1F [Example 55]
Between A and B , which one shows the smaller chromatographic logP number? Output the label that corresponds to your choice. A

---

# assay protocol: logP by HPLC (EEC Directive 79/831 Annex V. A8, gradient method, acetonitrile/0.1% aqueous phosphoric acid)
# Format: physicochemical
readout: chromatographic logP

[[record]]
compound = "CON=C(C1=NOCCN1)c1ccccc1Oc1ncnc(Sc2cccc(Br)c2)c1F"
numeric_result = 3.66

[[record]]
compound = "CON=C(C1=NOCCN1)c1ccccc1Oc1ncnc(OCc2cccc(Cl)c2)c1F"
numeric_result = 3.44

[[record]]
compound = "CON=C(C1=NOCCN1)c1ccccc1Oc1ncnc(Oc2ccccc2C)c1F"
numeric_result = 3.01

[[record]]
compound = "CON=C(C1=NOCCN1)c1ccccc1Oc1ncnc(Oc2ccccc2Br)c1F"
numeric_result = 3.08

[[record]]
compound = "CON=C(C1=NOCCN1)c1ccccc1Oc1ncnc(OCc2ccccc2Cl)c1F"
numeric_result = 2.8

[[record]]
compound = "CON=C(C1=NOCCN1)c1ccccc1Oc1ncnc(Oc2ccc(OC(F)(F)C(F)Cl)cc2)c1F (stereo not drawn)"
numeric_result = 3.56

[[record]]
compound = "CCSCc1ccccc1Oc1ncnc(Oc2ccccc2C(=NOC)C2=NOCCN2)c1F"
numeric_result = 3.4

[[record]]
compound = "CON=C(C1=NOCCN1)c1ccccc1Oc1ncnc(Oc2cccc(Cl)n2)c1F"
numeric_result = 2.62

[[record]]
compound = "CON=C(C1=NOCCN1)c1ccccc1Oc1ncnc(Oc2cc(C)ccc2C)c1F"
numeric_result = 3.35

[[record]]
compound = "CON=C(C1=NOCCN1)c1ccccc1Oc1ncnc(Oc2ccccc2F)c1F"
numeric_result = 2.85

[[record]]
compound = "CCc1ccccc1Oc1ncnc(Oc2ccccc2C(=NOC)C2=NOCCN2)c1F"
numeric_result = 3.32

[[record]]
compound = "CON=C(C1=NOCCN1)c1ccccc1Oc1ncnc(Oc2ccccc2Cl)c1F"
numeric_result = 3.02

